# PROTOCOL_DETAILS: Metabolic stability in human hepatic microsome
# Type: in vitro ADME
# RUN_PARAMETERS: microsomes, pH 7.4; human hepatic microsome, NADPH(+); read-out: CL NADPH(+)
Starred links: 1 amine or outer side, 2 acyl side, 3 side chain; linkers in the order of their positions; H or OH if unused. Positions of bridges follow the written chain, without caps; N, C: chain ends. Non-standard residues stand in square brackets, D forms with d. Residues, ends and D or L forms follow the SMILES beside them. *: point of attachment. NMeF = CN[C@@H](Cc1ccccc1)C(=O)O; NMeGABA = CN(CCCC(=O)[*:2])[*:1]; NMeβAla = CN(CCC(=O)[*:2])[*:1]; NMeL = CN[C@@H](CC(C)C)C(=O)O; NMeA = CN[C@@H](C)C(=O)O; Piperidide = C1CCN(*)CC1; β3hA = C[C@H](N)CC(=O)O; Sar = CNCC(=O)O; tBu = CC(C)(C)*
Collected microsomal CLint at 1 uM values appear next to each entry.
Dear colleague, please return just the value in µL/min/mg, with no unit written.

Example entries and their recorded answers appear below.
- COMPOUND: "CC[C@H](C)[C@@H]1NC(=O)[C@H](CC(C)C)N(C)C(=O)[C@H](C)N(C)C(=O)[C@@H](C)NC(=O)C[C@@H](C(=O)N2CCCCC2)NC(=O)[C@H](CC(C)C)N(C)C(=O)[C@H](C)N(C)C(=O)[C@H]([C@@H](C)O)NC(=O)[C@H](Cc2ccccc2)N(C)C(=O)[C@H](Cc2ccccc2)N(C)C1=O [DP-136] ([dA][NMeA][NMeL]I[NMeF][NMeF]T[NMeA][NMeL]D-Piperidide; lactam N-10)"
  microsomal CLint at 1 uM, µL/min/mg: 147
- COMPOUND: "CC(C)C[C@H]1C(=O)N(C)CC(=O)N(C)[C@@H](Cc2ccccc2)C(=O)N[C@@H](COC(C)(C)C)C(=O)N[C@H](C(=O)N2CCCCC2)CC(=O)N(C)CCCC(=O)N[C@@H]([C@@H](C)O)C(=O)N1C [DP-534] ([NMeGABA]T[NMeL][Sar][NMeF]S(tBu)D-Piperidide; lactam N-7)"
  microsomal CLint at 1 uM, µL/min/mg: 55

INPUT: Recorded microsomal CLint at 1 uM of CC(C)C[C@H]1C(=O)NCC(=O)N[C@@H](C)CC(=O)N(C)CCC(=O)N[C@@H]([C@@H](C)O)C(=O)N(C)[C@@H](C)C(=O)N[C@@H](COC(C)(C)C)C(=O)N(C)[C@@H](Cc2ccccc2)C(=O)N1C [DP-794] (cyclo(G[β3hA][NMeβAla]T[NMeA]S(tBu)[NMeF][NMeL])) , please.
OUTPUT: 43

----------
# PROTOCOL_DETAILS: PAMPA (parallel artificial membrane permeability assay)
# Type: in vitro ADME
# RUN_PARAMETERS: PAMPA
# Papp at 18 h, 50 µM per record follows
Report the value in ×10⁻⁶ cm/s with no unit label.

- COMPOUND: "NS(=O)(=O)c1cc2c(cc1Cl)NCNS2(=O)=O [hydrochlorothiazide, reference compound]"
  Papp at 18 h, 50 µM [×10⁻⁶ cm/s]: 0.6

We now examine a further compound.
INPUT: May I ask what Papp at 18 h, 50 µM has been recorded for COCCc1ccc(OCC(O)CNC(C)C)cc1 (centres unmarked) [metoprolol, reference compound] ?
OUTPUT: 29
